System: Cooperia curticei
assay name: Cooperia curticei larval mortality
settings: 120 h, read-out: activity (percentage of larval mortality)
We begin with a simple list: items and their reported mortality at 20 ppm.
A number alone suffices; assume %.

Example entries begin here.
molecule="CN(C)c1c(C(=O)N[C@H]2CCOc3ccccc32)cnc2c(-c3cccc(Cl)c3Cl)nccc12 [Example T1-2]" parameter_measured="mortality at 20 ppm" numeric_result=100
molecule="CN(C)c1c(C(=O)N[C@H]2CCOc3ccccc32)cnc2c(-c3cc(Cl)cc(Cl)c3)cncc12 [Example T2-1]" parameter_measured="mortality at 20 ppm" numeric_result=100
molecule="CN(C)c1c(C(=O)N[C@H]2CCOc3ccccc32)cnc2c(-c3cc(Cl)cc(Cl)c3)ccnc12 [Example T3-1]" parameter_measured="mortality at 20 ppm" numeric_result=100
molecule="O=C(N[C@H]1CCOc2ccccc21)c1cnc2c(-c3cc(Cl)cc(Cl)c3Cl)nccc2c1N1CCOCC1 [Example T1-6]" parameter_measured="mortality at 20 ppm" numeric_result=100

Proceed to the following item.
Record O=C(N[C@H]1CCOc2ccccc21)c1cnc2c(-c3cc(Cl)cc(Cl)c3)cnnc2c1N1CCOCC1 [Example T6-4] , field mortality at 20 ppm: 90
